B1: Nuclear receptor subfamily 4 group A member 2, residues 260 to 336; numbered along this chain, P43354 (parent)
chain: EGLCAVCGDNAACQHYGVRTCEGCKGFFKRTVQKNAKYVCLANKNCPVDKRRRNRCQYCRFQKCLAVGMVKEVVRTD

- Variants of: B1
- RUN DESCRIPTION: abundance fitness (aPCA) (normalised: wild type 0, dead -1); higher = more abundant; growth selection in yeast, the domain comes from the species named
- ASSAY CONTEXT: Homo sapiens
// abundance fitness lookup, one value per entry

Worked set:
MUTATIONS: C59F
abundance fitness: -1.03

MUTATIONS: A66C
abundance fitness: -0.21

MUTATIONS: R60C
abundance fitness: 0.101

MUTATIONS: K25A
abundance fitness: 0.127

MUTATIONS: G26K
abundance fitness: -0.352

MUTATIONS: C56L
abundance fitness: -1.09

Ask: I would be grateful if you could share the reported abundance fitness for C46L .
Reply: -0.609

Ask: I would be grateful if you could share the reported abundance fitness for G23W .
Reply: -0.029

Ask: I would be grateful if you could share the reported abundance fitness for F27L .
Reply: -0.431

Ask: I would be grateful if you could share the reported abundance fitness for G17S .
Reply: -0.371

FYI, the data here is from the Human Domainome abundance scans (Beltran et al. 2025).
